Consider the following compounds; for each one, report its DC50.
- Experimental System: BRM (Homo sapiens, UniProt P51531)
- Construct: In-Cell Western Screen of BRM Degradation in SW1573 Cells; endogenous in cells; host or cells: SW1573
- Sequence (P51531 whole entry): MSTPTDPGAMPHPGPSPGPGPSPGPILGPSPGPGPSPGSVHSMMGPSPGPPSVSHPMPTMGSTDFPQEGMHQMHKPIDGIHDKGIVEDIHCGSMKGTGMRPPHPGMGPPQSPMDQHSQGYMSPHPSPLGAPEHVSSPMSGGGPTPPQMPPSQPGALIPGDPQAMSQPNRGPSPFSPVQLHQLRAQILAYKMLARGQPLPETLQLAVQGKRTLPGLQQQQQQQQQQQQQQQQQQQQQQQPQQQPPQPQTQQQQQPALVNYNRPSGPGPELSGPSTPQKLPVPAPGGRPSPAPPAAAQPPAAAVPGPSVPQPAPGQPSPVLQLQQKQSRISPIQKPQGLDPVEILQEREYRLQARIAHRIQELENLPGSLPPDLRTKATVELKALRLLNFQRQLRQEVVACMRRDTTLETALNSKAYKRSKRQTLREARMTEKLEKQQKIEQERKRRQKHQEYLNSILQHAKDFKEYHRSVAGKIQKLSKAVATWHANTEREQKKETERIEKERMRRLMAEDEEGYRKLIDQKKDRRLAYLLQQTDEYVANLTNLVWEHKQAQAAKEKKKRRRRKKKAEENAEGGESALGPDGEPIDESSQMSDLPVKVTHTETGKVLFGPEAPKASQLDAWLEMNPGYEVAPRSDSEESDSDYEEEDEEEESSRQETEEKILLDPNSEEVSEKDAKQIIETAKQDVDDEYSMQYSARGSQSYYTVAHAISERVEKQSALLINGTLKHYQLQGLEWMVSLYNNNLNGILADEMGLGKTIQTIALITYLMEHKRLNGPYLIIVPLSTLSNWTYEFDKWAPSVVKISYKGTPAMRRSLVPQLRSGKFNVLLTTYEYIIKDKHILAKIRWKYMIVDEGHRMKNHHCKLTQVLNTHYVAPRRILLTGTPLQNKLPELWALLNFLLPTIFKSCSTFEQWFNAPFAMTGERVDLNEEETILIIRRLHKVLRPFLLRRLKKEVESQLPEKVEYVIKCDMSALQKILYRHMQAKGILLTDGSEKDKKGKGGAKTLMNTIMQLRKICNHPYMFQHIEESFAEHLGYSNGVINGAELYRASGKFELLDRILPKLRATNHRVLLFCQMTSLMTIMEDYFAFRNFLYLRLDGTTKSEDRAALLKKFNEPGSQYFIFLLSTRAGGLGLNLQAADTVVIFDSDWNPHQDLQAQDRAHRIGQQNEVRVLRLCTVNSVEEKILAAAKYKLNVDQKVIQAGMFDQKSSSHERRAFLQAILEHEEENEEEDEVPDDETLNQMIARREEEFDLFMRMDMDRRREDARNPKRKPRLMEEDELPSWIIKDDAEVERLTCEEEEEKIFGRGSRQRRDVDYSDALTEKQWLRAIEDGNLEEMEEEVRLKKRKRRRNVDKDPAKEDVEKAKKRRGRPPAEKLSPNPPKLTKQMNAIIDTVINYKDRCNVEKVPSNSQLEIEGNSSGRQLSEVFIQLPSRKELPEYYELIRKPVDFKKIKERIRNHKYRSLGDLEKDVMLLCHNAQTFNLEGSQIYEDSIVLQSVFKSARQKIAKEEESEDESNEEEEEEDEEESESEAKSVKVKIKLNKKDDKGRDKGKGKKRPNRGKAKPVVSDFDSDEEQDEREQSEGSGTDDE
- Assay Comment: In-cell Western screen of BRM degradation in SW1573 cells (Dmax and DC50)
- Type: cell-based
- Conditions: target protein degradation; read-out: BRM DC50

**Q:** Report value only: DC50, BRM (Homo sapiens, UniProt P51531), Cc1ncsc1-c1ccc([C@H](C)NC(=O)[C@@H]2C[C@@H](O)CN2C(=O)[C@@H](c2cc(C#CCN3CCC(O[C@H]4C[C@H](Oc5cc(N6C7CCC6CN(c6cc(-c8ccccc8O)nnc6N)C7)ccn5)C4)CC3)no2)C(C)C)cc1
**A:** < 2.5 nM

**Q:** Give DC50 for this entry on BRM (Homo sapiens, UniProt P51531): Cc1nccn1-c1ccc([C@H](C)NC(=O)[C@@H]2C[C@@H](O)CN2C(=O)[C@@H](c2cc(N3CCC(OC4CCN(C[C@H]5C[C@H](Oc6cc(N7C8CCC7CN(c7cc(-c9ccccc9O)nnc7N)C8)ccn6)C5)CC4)CC3)no2)C(C)C)cc1
**A:** < 2.5 nM

**Q:** Enter measured DC50, system BRM (Homo sapiens, UniProt P51531), for the compound shown: Cc1ncsc1-c1ccc([C@H](C)NC(=O)[C@@H]2C[C@@H](O)CN2C(=O)[C@@H](c2cc(OCCN3CCC(O[C@H]4C[C@H](OCCN5CCOC6(CCN(c7cc(-c8ccccc8O)nnc7N)CC6)C5)C4)CC3)no2)C(C)C)cc1
**A:** < 2.5 nM

**Q:** Give reported DC50 for Cc1ncsc1-c1ccc([C@H](C)NC(=O)[C@@H]2C[C@@H](O)CN2C(=O)[C@@H](c2cc(OCC#CC34CC(CN[C@H]5C[C@H](Oc6cc(N7C8CC[C@@H]7CN(c7cc(-c9ccccc9O)nnc7N)C8)ccn6)C5)(C3)C4)no2)C(C)C)cc1 (BRM (Homo sapiens, UniProt P51531))
**A:** < 2.5 nM

**Q:** // fetch DC50; item: Cc1ncsc1-c1ccc([C@H](C)NC(=O)[C@@H]2C[C@@H](O)CN2C(=O)[C@H](c2cc(OCCOCCOc3cc(N4C5CCC4CN(c4cc(-c6ccccc6O)nnc4N)C5)ccn3)no2)C(C)C)cc1 ; system: BRM (Homo sapiens, UniProt P51531)
**A:** > 30 nM

**Q:** Write DC50 of Cc1ncsc1-c1ccc([C@H](C)NC(=O)[C@@H]2C[C@@H](O)CN2C(=O)[C@H](c2cc(OCCN3CCC(O[C@H]4C[C@H](Oc5cnnc(N6C7CCC6CN(c6cc(-c8ccccc8O)nnc6N)C7)c5)C4)CC3)no2)C(C)C)cc1 ; system used: BRM (Homo sapiens, UniProt P51531)
**A:** > 30 nM

**Q:** State, for BRM (Homo sapiens, UniProt P51531), measured DC50 of the compound listed here: Cc1ncsc1-c1ccc([C@H](C)NC(=O)[C@@H]2C[C@@H](OP(=O)(O)O)CN2C(=O)[C@@H](c2cc(OCCN3CCC(O[C@H]4C[C@H](Oc5cc(N6C7CCC6CN(c6cc(-c8ccccc8O)nnc6N)C7)ccn5)C4)CC3)no2)C(C)C)cc1
**A:** < 2.5 nM

**Q:** Determine reported DC50 for Cc1ncsc1-c1ccc([C@H](C)NC(=O)[C@@H]2C[C@@H](O)CN2C(=O)[C@@H](c2cc(OCCN3CCC(O[C@H]4C[C@H](Oc5cc(N6C7CCC6CN(c6ccn8cc(-c9ccccc9O)nc8n6)C7)ccn5)C4)CC3)no2)C(C)C)cc1 ; test system: BRM (Homo sapiens, UniProt P51531).
**A:** > 30 nM

Every entry's value here was drawn from patent US12539292B2.
